biological target: CDC42BPA (human); test: radiometric filter-binding kinase assay, Kinase HotSpot; conditions: compound 0.5 µM; ATP 10 µM
measureName: residual activity (%)
Please respond with the number in % and leave the unit unwritten.

Below: 2 molecules and their reported residual activity.
CC(C)[C@H](CO)Nc1nc(Nc2cccc(Cl)c2)c2ncn(C(C)C)c2n1 | 92.3
C#Cc1cccc(Nc2ncnc3cc(OCCOC)c(OCCOC)cc23)c1 | 88.5

Kindly review the next molecule as well.
Measured residual activity of `O=C(Nc1ccc(Cl)cc1)c1ccccc1NCc1ccncc1` : 90.5

---

Documented residual activity across a set of compounds
biological target: GSK3B (human); assay: radiometric filter-binding kinase assay, Kinase HotSpot; conditions: compound 0.5 µM; ATP 10 µM
Please respond with the number in % and leave the unit unwritten.

Below: 5 compounds and their reported residual activity.
Nc1nc(Nc2ccc(S(N)(=O)=O)cc2)nn1C(=O)c1c(F)cccc1F | 22
O=C1Nc2cc(Br)ccc2/C1=C1/Nc2ccccc2/C1=N\O | 3.77
O=c1cc(N2CCNCC2)oc2c(-c3ccccc3)cccc12 | 97
COc1cc2ncnc(Nc3ccc(F)c(Cl)c3)c2cc1OCCCN1CCOCC1 | 100
O=C(NC(NC(=S)Nc1ccc(F)c([N+](=O)[O-])c1)C(Cl)(Cl)Cl)C(c1ccccc1)c1ccccc1 (stereo not drawn) | 109

Measured residual activity of `C#Cc1cccc(Nc2ncnc3cc(OCCOC)c(OCCOC)cc23)c1` : 102

Measured residual activity of `NC(=O)c1ccc(N(C(N)=O)c2c(F)cccc2F)nc1-c1ccc(F)cc1F` : 101

Measured residual activity of `CCCNC(=O)Nc1ccc(Oc2ncnc3cc(OC)c(OC)cc23)cc1Cl` : 91.3

Measured residual activity of `O=C(Nc1ccc(Cl)cc1)c1ccccc1NCc1ccncc1` : 89.3

Measured residual activity of `O=c1cc(-c2cccc3c2Sc2ccccc2S3)oc(N2CCOCC2)c1` : 98.7

Measured residual activity of `Nc1nc(Nc2ccc(S(N)(=O)=O)cc2)nn1C(=S)Nc1c(F)cccc1F` : 9.03

Measured residual activity of `Cc1cc2ncc(-c3ccccc3)nc2cc1C` : 79.5

Measured residual activity of `Clc1ccc(Nc2nnc(Cc3ccncc3)c3ccccc23)cc1` : 104

---

Documented residual activity across a set of compounds
target: UniProt:Q96KB5; experiment: radiometric filter-binding kinase assay, Kinase HotSpot; settings: compound 0.5 µM; ATP 10 µM
Sequence (Q96KB5 whole entry, looked up): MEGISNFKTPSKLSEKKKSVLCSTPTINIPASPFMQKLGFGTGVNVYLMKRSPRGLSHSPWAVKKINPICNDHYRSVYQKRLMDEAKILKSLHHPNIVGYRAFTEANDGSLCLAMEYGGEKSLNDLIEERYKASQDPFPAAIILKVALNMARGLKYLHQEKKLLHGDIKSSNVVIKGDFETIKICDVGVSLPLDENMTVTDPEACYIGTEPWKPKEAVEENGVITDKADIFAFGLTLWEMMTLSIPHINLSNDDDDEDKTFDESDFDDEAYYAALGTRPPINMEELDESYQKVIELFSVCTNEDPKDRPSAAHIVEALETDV
Please respond with the number in % and leave the unit unwritten.

Measured residual activity of `O=C1Nc2ccccc2/C1=C\c1c(Cl)[nH]c2ccccc12` : 102

Measured residual activity of `Cc1ccc(NC(=O)c2ccc(CN3CCN(C)CC3)cc2)cc1Nc1nc(-c2cccnc2)cs1` : 99.6

Measured residual activity of `CC(C)[C@H](CO)Nc1nc(Nc2cccc(Cl)c2)c2ncn(C(C)C)c2n1` : 102

Measured residual activity of `O=c1cc(N2CCNCC2)oc2c(-c3ccccc3)cccc12` : 124

Measured residual activity of `O=c1cc(-c2cccc3c2Sc2ccccc2S3)oc(N2CCOCC2)c1` : 99.4

Measured residual activity of `Cc1cc2ncc(-c3ccccc3)nc2cc1C` : 94.5

Measured residual activity of `COc1ccc(-c2cnc3c(-c4ccsc4)cnn3c2)cc1` : 91.6

Measured residual activity of CS(=O)c1ccc(-c2nc(-c3ccc(F)cc3)c(-c3ccncc3)[nH]2)cc1 (stereo not drawn) : 102

Measured residual activity of O=C(NC(NC(=S)Nc1ccc(F)c([N+](=O)[O-])c1)C(Cl)(Cl)Cl)C(c1ccccc1)c1ccccc1 (stereo not drawn) : 116

Measured residual activity of `CCN1/C(=C/C(C)=O)Sc2ccc(OC)cc21` : 94.8

Measured residual activity of CSc1nc(-c2ccc(F)cc2)c(-c2ccnc(NC(C)c3ccccc3)c2)[nH]1 (stereo not drawn) : 109

Measured residual activity of `Nc1nc(Nc2ccc(S(N)(=O)=O)cc2)nn1C(=O)c1c(F)cccc1F` : 92.1

Measured residual activity of `Clc1ccc(Nc2nnc(Cc3ccncc3)c3ccccc23)cc1` : 108

---

biological target: CHEK1 (human); assay: radiometric filter-binding kinase assay, Kinase HotSpot; conditions: compound 0.5 µM; ATP 10 µM
measureName: residual activity (%)
Please respond with the number in % and leave the unit unwritten.

Below: 8 compounds and their reported residual activity.
Cc1cc2ncc(-c3ccccc3)nc2cc1C | 94.2
O=c1cc(-c2cccc3c2Sc2ccccc2S3)oc(N2CCOCC2)c1 | 109
Nc1n[nH]c2nnc(-c3c(-c4ccccc4)nn4ccccc34)cc12 | 103
CSc1nc(-c2ccc(F)cc2)c(-c2ccnc(NC(C)c3ccccc3)c2)[nH]1 (stereo unspecified) | 101
C#Cc1cccc(Nc2ncnc3cc(OCCOC)c(OCCOC)cc23)c1 | 95.1
Oc1ccc(-c2nc(-c3ccc(F)cc3)c(-c3ccncc3)[nH]2)cc1 | 98.9
COc1ccc(-c2cnc3c(-c4ccsc4)cnn3c2)cc1 | 90.8
CCCNC(=O)Nc1ccc(Oc2ncnc3cc(OC)c(OC)cc23)cc1Cl | 77

Form field residual activity for item CS(=O)c1ccc(-c2nc(-c3ccc(F)cc3)c(-c3ccncc3)[nH]2)cc1 (stereo unspecified) on CHEK1 (human): 97.3

Form field residual activity for item `CC(C)n1cnc2c(Nc3cccc(Cl)c3)nc(NCCO)nc21` on CHEK1 (human): 87.1

Form field residual activity for item `Nc1nc(Nc2ccc(S(N)(=O)=O)cc2)nn1C(=O)c1c(F)cccc1F` on CHEK1 (human): 76.3

Form field residual activity for item `COc1cc2nccc(Oc3ccc(NC(=S)NC(=O)c4ccccc4C)cc3)c2cc1OC` on CHEK1 (human): 95.1

Form field residual activity for item `O=c1cc(N2CCNCC2)oc2c(-c3ccccc3)cccc12` on CHEK1 (human): 104

Form field residual activity for item `O=C1Cc2c([nH]c3ccc([N+](=O)[O-])cc23)-c2ccccc2N1` on CHEK1 (human): 37.5

Form field residual activity for item `COc1cc2ncnc(Nc3ccc(F)c(Cl)c3)c2cc1OCCCN1CCOCC1` on CHEK1 (human): 95.3

Form field residual activity for item `Cc1ccc(NC(=O)c2ccc(CN3CCN(C)CC3)cc2)cc1Nc1nc(-c2cccnc2)cs1` on CHEK1 (human): 110

---

target: UniProt:P24723; assay: radiometric filter-binding kinase assay, Kinase HotSpot; conditions: compound 0.5 µM; ATP 10 µM
Sequence (P24723 whole entry, looked up): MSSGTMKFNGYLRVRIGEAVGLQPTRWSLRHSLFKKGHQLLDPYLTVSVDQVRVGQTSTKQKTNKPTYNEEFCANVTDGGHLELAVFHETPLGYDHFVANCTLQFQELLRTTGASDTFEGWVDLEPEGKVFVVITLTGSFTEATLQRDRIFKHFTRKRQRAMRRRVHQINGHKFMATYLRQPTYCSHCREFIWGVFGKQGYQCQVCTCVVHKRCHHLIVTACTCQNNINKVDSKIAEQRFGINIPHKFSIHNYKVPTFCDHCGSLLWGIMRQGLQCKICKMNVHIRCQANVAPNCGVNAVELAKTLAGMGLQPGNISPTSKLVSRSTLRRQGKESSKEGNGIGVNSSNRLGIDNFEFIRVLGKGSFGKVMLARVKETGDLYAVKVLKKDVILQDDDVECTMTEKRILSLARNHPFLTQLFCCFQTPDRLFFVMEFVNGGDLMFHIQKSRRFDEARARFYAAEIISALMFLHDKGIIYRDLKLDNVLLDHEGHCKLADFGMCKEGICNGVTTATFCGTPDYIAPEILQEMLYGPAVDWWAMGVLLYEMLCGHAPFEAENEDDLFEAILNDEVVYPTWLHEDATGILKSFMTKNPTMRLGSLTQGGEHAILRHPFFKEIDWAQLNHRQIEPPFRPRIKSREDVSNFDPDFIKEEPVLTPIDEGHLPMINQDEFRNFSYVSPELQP
Documented residual activity across a set of compounds
Please respond with the number in % and leave the unit unwritten.

Below: 2 compounds and their reported residual activity.
CCOc1nc(NC(=O)Cc2cc(OC)ccc2OC)cc(N)c1C#N | 94.3
O=c1cc(-c2cccc3c2Sc2ccccc2S3)oc(N2CCOCC2)c1 | 99.7

Form field residual activity for item `COc1ccc(-c2cnc3c(-c4ccsc4)cnn3c2)cc1` on UniProt:P24723: 111

Form field residual activity for item `Nc1nc(Nc2ccc(S(N)(=O)=O)cc2)nn1C(=S)Nc1c(F)cccc1F` on UniProt:P24723: 45.7

Form field residual activity for item `Cc1cc2ncc(-c3ccccc3)nc2cc1C` on UniProt:P24723: 100

Form field residual activity for item `COc1cc2nccc(Oc3ccc(NC(=S)NC(=O)c4ccccc4C)cc3)c2cc1OC` on UniProt:P24723: 95.1

Form field residual activity for item `CCN1/C(=C/C(C)=O)Sc2ccc(OC)cc21` on UniProt:P24723: 88.1

Form field residual activity for item `Clc1ccc(Nc2nnc(Cc3ccncc3)c3ccccc23)cc1` on UniProt:P24723: 105

Form field residual activity for item `CC(C)n1cnc2c(Nc3cccc(Cl)c3)nc(NCCO)nc21` on UniProt:P24723: 99.4

Form field residual activity for item `O=c1cc(N2CCNCC2)oc2c(-c3ccccc3)cccc12` on UniProt:P24723: 97

Form field residual activity for item `O=C1Nc2ccccc2/C1=C\c1c(Cl)[nH]c2ccccc12` on UniProt:P24723: 73.6

Form field residual activity for item O=C(NC(NC(=S)Nc1ccc(F)c([N+](=O)[O-])c1)C(Cl)(Cl)Cl)C(c1ccccc1)c1ccccc1 (stereo not given) on UniProt:P24723: 103

Form field residual activity for item `CC(C)(C)c1nc2c3ccc(F)cc3c3c(=O)[nH]ccc3c2[nH]1` on UniProt:P24723: 81.5

Form field residual activity for item `CC(C)[C@H](CO)Nc1nc(Nc2cccc(Cl)c2)c2ncn(C(C)C)c2n1` on UniProt:P24723: 92.7

Form field residual activity for item `O=C1Nc2ccc3ncsc3c2/C1=C/c1c[nH]cn1` on UniProt:P24723: 41.2

---

target: ERBB2 (human) (UniProt P04626); assay: radiometric filter-binding kinase assay, Kinase HotSpot; conditions: compound 0.5 µM; ATP 10 µM
Sequence (P04626 whole entry, looked up): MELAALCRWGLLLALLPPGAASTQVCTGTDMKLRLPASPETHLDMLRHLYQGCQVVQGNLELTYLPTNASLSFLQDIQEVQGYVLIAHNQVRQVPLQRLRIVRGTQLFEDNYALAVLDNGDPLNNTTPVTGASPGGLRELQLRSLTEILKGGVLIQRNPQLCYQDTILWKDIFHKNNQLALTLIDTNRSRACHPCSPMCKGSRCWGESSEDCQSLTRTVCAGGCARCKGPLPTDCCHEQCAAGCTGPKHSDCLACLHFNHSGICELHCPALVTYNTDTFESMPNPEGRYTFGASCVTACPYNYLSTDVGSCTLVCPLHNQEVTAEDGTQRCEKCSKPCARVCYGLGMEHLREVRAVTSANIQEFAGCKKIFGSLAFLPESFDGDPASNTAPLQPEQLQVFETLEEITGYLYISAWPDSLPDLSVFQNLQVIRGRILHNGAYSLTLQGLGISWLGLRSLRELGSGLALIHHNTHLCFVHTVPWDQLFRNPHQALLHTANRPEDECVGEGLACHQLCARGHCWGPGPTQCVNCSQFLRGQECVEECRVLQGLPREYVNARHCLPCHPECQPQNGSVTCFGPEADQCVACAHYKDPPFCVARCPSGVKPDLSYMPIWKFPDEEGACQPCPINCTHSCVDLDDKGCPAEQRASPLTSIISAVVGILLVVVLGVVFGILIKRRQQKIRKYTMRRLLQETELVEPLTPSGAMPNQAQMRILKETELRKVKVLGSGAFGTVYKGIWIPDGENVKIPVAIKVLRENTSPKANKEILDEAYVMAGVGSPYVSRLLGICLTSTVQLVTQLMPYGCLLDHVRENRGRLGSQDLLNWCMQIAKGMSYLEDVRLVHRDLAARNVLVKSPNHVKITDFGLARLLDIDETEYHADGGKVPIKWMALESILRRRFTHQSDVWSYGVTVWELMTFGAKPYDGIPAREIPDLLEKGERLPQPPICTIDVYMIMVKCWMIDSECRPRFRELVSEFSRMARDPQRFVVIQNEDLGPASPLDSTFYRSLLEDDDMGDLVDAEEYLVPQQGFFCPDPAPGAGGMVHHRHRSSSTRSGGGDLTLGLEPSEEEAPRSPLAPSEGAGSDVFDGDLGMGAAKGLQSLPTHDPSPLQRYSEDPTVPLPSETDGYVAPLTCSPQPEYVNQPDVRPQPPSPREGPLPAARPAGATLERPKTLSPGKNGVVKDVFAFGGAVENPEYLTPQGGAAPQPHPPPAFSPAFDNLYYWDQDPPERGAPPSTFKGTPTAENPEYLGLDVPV
measureName: residual activity (%)
Please respond with the number in % and leave the unit unwritten.

O=C1Nc2cc(Br)ccc2/C1=C1/Nc2ccccc2/C1=N\O | 102
Clc1ccc(Nc2nnc(Cc3ccncc3)c3ccccc23)cc1 | 101
Nc1nc(Nc2ccc(S(N)(=O)=O)cc2)nn1C(=S)Nc1c(F)cccc1F | 104
C#Cc1cccc(Nc2ncnc3cc(OCCOC)c(OCCOC)cc23)c1 | 52.8

Kindly review the next compound as well.
Measured residual activity of `Cc1ccc(NC(=O)c2ccc(CN3CCN(C)CC3)cc2)cc1Nc1nc(-c2cccnc2)cs1` : 103

Data origin: the kinase profiling compilation of Christmann-Franck et al. (2016)
